TEST_NAME: in vivo
Set-up: species or system SD rats
RUN_PARAMETERS: rat, iv, 2 mg/kg, Vdss
MEASUREMENT_KIND: Vd (L/kg)
// return numeric value only (unit: L/kg, not printed)

Find the recorded Vd belonging to CC(C)(C)[C@H](NC(=O)C(F)(F)F)C(=O)N1[C@H]2C[C@@H]([C@H]1C(=O)N[C@H](C#N)C[C@@H]1CCNC1=O)C1(CC1)C2 [Crystal form A] and report it.
1.11

* * *

TEST_NAME: in vivo
Set-up: species or system SD rats
RUN_PARAMETERS: rat, po, 30 mg/kg, Tmax
MEASUREMENT_KIND: Tmax

Find the recorded Tmax belonging to CC(C)(C)[C@H](NC(=O)C(F)(F)F)C(=O)N1[C@H]2C[C@@H]([C@H]1C(=O)N[C@H](C#N)C[C@@H]1CCNC1=O)C1(CC1)C2 [Crystal form A] and report it.
55 min

Sourced from patent EP4603497A1
